Molecular target: Steroid 17-alpha-hydroxylase/17,20 lyase (Homo sapiens, UniProt P05093)
Sequence (P05093 whole entry): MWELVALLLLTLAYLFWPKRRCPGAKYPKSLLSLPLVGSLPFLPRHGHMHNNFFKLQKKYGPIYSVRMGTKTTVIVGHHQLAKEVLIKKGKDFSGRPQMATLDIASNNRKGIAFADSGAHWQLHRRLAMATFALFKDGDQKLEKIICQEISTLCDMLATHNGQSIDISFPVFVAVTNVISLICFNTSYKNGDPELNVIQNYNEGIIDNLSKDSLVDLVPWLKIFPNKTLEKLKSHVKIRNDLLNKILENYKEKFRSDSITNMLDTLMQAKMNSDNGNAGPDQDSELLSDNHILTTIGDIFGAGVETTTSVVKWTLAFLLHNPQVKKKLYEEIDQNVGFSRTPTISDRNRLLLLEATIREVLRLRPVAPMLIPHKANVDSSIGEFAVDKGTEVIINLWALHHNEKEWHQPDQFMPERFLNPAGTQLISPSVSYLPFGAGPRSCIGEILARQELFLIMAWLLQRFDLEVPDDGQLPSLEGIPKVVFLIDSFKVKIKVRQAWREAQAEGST
PROPERTY MEASURED: IC50 (nM)
Write the number in nM without appending the unit.

What the record says about C[C@]12CC[C@H](O)CC1=CC[C@@H]1[C@@H]2CC[C@]2(C)C(c3cccnc3)=CC[C@@H]12 : IC50 is 72

###

Biological target: CYP1A2 (Homo sapiens, UniProt P05177)
Sequence (P05177 whole entry): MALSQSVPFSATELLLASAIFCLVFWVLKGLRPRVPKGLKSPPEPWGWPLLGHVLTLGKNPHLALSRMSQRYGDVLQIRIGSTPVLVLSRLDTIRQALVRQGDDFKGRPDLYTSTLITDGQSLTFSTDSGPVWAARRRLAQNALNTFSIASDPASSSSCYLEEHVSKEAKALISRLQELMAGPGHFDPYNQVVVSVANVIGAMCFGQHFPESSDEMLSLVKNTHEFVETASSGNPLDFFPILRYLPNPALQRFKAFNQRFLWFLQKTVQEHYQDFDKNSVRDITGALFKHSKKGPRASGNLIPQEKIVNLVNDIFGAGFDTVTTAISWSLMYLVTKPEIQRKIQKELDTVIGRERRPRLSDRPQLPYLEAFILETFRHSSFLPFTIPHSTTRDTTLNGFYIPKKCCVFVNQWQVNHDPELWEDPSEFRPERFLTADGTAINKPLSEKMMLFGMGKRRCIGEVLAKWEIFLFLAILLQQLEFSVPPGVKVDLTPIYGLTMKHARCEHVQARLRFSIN
Experiment: Inhibition of hepatic CYP1A2 at 1 uM
Format: ADME
PROPERTY MEASURED: inhibition at 1 µM (%)
Write the number in % without appending the unit.

Example entries and their recorded answers appear below.
COc1ccc2cc(-c3ccc(F)cc3)ccc2c1-c1cccnc1: 40
CC(=O)N1CCN(c2ccc(OCC3COC(Cn4ccnc4)(c4ccc(Cl)cc4Cl)O3)cc2)CC1 (stereo unspecified): 8
C[C@]12CC[C@H](O)CC1=CC[C@@H]1[C@@H]2CC[C@]2(C)C(c3cccnc3)=CC[C@@H]12: 36
Oc1ccc2cc(-c3cccc(-c4ccncc4)c3)ccc2c1: 98
COc1ccc2cc(-c3ccc(F)cc3)ccc2c1Cn1ccnc1: 80

Summary for this molecule, COc1ccc2cc(-c3cccc(Cn4ccnc4)c3)ccc2c1 : inhibition at 1 µM is 96

###

Molecular target: CYP2D6 (Homo sapiens)
Sequence (P10635 whole entry): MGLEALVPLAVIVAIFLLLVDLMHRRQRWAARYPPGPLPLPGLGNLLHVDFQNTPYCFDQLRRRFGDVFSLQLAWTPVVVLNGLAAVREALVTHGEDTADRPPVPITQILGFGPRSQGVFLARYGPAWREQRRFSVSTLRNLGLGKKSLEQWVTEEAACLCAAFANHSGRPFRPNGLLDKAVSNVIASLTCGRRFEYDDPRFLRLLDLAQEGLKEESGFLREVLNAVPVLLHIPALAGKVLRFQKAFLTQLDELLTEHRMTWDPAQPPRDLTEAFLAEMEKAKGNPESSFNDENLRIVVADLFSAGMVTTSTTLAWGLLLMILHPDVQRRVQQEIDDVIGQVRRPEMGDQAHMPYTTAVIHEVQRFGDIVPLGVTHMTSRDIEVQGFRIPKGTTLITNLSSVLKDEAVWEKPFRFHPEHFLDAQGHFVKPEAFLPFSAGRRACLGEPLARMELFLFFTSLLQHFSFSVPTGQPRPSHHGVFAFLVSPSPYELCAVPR
Test: Inhibition of CYP2D6 at 10 uM
Assay type: ADME
PROPERTY MEASURED: inhibition at 10 µM (%)
Form entry: value (%) — number only.

The recorded inhibition at 10 µM for entry Oc1ccc2cc(-c3cccc(-c4ccncc4)c3)ccc2c1 equals 85

###

Biological target: UniProt:P08684
Sequence (P08684 whole entry): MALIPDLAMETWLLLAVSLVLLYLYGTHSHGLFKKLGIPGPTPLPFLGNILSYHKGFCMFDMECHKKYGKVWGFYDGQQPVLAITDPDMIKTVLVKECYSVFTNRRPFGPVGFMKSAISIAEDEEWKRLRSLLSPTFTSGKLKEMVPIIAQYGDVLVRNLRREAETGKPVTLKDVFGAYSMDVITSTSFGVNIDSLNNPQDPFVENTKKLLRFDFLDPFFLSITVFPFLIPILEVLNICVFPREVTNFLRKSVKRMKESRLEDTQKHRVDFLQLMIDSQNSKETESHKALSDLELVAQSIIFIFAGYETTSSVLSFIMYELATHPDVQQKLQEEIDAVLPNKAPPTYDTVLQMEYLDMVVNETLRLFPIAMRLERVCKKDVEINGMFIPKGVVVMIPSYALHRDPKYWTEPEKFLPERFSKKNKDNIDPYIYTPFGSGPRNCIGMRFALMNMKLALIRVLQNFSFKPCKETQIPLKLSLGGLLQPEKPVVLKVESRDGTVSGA
Experiment: Inhibition of hepatic recombinant CYP3A4 at 10 uM
Type: ADME
PROPERTY MEASURED: inhibition at 10 µM (%)
The answer is to be given in %; state only the numeric part.

GET /value?item= Oc1ccc2cc(-c3cccc(-c4ccncc4)c3)ccc2c1 &field=inhibition at 10 µM returns 19

###

Target: CYP2C9 (Homo sapiens)
Sequence (P11712 whole entry): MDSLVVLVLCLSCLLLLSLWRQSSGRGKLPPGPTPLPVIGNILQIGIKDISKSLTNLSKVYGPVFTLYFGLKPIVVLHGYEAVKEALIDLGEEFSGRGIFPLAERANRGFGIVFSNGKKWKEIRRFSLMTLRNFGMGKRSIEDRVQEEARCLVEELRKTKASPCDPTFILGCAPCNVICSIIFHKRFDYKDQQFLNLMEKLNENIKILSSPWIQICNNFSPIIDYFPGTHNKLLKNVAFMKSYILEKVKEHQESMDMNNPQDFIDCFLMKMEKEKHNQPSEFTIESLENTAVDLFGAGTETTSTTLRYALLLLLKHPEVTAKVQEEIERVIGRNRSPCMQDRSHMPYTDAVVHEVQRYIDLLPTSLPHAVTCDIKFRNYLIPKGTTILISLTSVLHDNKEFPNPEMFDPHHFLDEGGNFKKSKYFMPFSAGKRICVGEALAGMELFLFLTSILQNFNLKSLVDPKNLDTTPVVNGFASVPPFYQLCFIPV
Experiment: Inhibition of hepatic CYP2C9 at 1 uM
Assay type: ADME
Threshold check on inhibition at 1 µM: at or above 70% gives Y, strictly below gives N.

C[C@]12CC[C@H](O)CC1=CC[C@@H]1[C@@H]2CC[C@]2(C)C(c3cccnc3)=CC[C@@H]12: N

Prompt line: Could you please find out whether CC(=O)N1CCN(c2ccc(OCC3COC(Cn4ccnc4)(c4ccc(Cl)cc4Cl)O3)cc2)CC1 (stereo unspecified) has inhibition at 1 µM that meets 70% or exceeds it?
Response line: N

Prompt line: Is inhibition at 1 µM for COc1ccc2cc(-c3cccc(Cn4ccnc4)c3)ccc2c1 at or above 70%?
Response line: Y

Prompt line: Form field: inhibition at 1 µM at least 70%? Entry: COc1ccc2cc(-c3ccc(F)cc3)ccc2c1Cn1ccnc1
Response line: Y

Prompt line: hey, is inhibition at 1 µM for this one >= 70%? Oc1ccc2cc(-c3cccc(-c4ccncc4)c3)ccc2c1
Response line: Y

Prompt line: Does the reported inhibition at 1 µM for COc1ccc2cc(-c3ccc(F)cc3)ccc2c1-c1cccnc1 fall at or above the 70% mark?
Response line: N

###

Target: CYP2C19 (Homo sapiens, UniProt P33261)
Sequence (P33261 whole entry): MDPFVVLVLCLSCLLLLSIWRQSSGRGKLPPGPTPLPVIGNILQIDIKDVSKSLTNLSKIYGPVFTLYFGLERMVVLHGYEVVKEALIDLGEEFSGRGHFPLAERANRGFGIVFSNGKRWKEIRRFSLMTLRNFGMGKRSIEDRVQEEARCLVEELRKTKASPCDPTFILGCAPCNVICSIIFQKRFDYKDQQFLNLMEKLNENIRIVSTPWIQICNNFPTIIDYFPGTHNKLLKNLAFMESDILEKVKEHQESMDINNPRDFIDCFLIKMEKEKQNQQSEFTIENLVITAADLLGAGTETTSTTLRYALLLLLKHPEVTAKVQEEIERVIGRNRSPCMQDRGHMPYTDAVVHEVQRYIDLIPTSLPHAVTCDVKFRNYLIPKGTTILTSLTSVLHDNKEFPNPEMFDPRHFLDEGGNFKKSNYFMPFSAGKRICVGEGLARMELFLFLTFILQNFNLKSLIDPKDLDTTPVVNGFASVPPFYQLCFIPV
Experiment: Inhibition of hepatic CYP2C19 at 10 uM
Assay type: ADME
Consider the following compounds and their measured inhibition at 10 µM readings.
Note: unit % is implicit; provide only the numeric part.

The value of inhibition at 10 µM recorded for COc1ccc2cc(-c3ccc(F)cc3)ccc2c1Cn1ccnc1 when tested on CYP2C19 (Homo sapiens, UniProt P33261) reads 96

Summary: CC(=O)N1CCN(c2ccc(OCC3COC(Cn4ccnc4)(c4ccc(Cl)cc4Cl)O3)cc2)CC1 (stereo unspecified) , CYP2C19 (Homo sapiens, UniProt P33261), inhibition at 10 µM = 1

The value of inhibition at 10 µM recorded for Oc1ccc2cc(-c3cccc(-c4ccncc4)c3)ccc2c1 when tested on CYP2C19 (Homo sapiens, UniProt P33261) reads 89

###

Target: Steroid 17-alpha-hydroxylase/17,20 lyase (Homo sapiens)
Assay: Inhibition of human CYP17 expressed in Escherichia coli at 2 uM
Kindly return MET if reported inhibition at 2 µM is no lower than 20%; return NOT MET if it is lower.

Fc1ccc(-c2ccc3c(Cn4ccnc4)cccc3c2)cc1: NOT MET

Turning now to a further record.
Prompt line: I'd appreciate it if you could say whether Fc1ccc(-c2ccc3c(-c4ccncc4)cccc3c2)cc1 has inhibition at 2 µM at least equal to 20%.
Response line: MET

###

Molecular target: UniProtKB P08684
Experiment: Inhibition of hepatic CYP3A4 at 10 uM
Format: ADME
Binary call on inhibition at 10 µM: Yes from 90% upward, No beneath that.

COc1ccc2cc(-c3cccc(Cn4ccnc4)c3)ccc2c1: Yes
Oc1ccc2cc(-c3cccc(-c4ccncc4)c3)ccc2c1: No
C[C@]12CC[C@H](O)CC1=CC[C@@H]1[C@@H]2CC[C@]2(C)C(c3cccnc3)=CC[C@@H]12 [ABIRATERONE]: No
COc1ccc2cc(-c3ccc(F)cc3)ccc2c1Cn1ccnc1: Yes
COc1ccc2cc(-c3ccc(F)cc3)ccc2c1-c1cccnc1: No

Turning now to a further compound:
Prompt line: Could you tell me if the measured inhibition at 10 µM of CC(=O)N1CCN(c2ccc(OCC3COC(Cn4ccnc4)(c4ccc(Cl)cc4Cl)O3)cc2)CC1 (stereo unspecified) [KETOCONAZOLE] reaches 90% or more?
Response line: No

###

Molecular target: Steroid 17-alpha-hydroxylase/17,20 lyase (Homo sapiens, UniProt P05093)
Assay: Inhibition of human CYP17 expressed in Escherichia coli at 0.2 uM
# Lookup of reported inhibition at 0.2 µM keyed by entry
All answers are understood in %, so give the number only.

Example molecules with recorded inhibition at 0.2 µM:
Cc1cc(F)ccc1-c1ccc2c(-c3cccnc3)cccc2c1: 3
Fc1ccc(-c2ccc3cc(Cn4ccnc4)ccc3c2)cc1: 3
COc1ccc2cc(-c3cccc(-c4cccnc4)c3)ccc2c1: 3

inhibition at 0.2 µM recorded for this molecule, Oc1ccc2cc(-c3cccc(-c4cccnc4)c3)ccc2c1 , is 0

COc1ccc2cc(-c3cccnc3)ccc2c1-c1ccc(F)cc1 yielded inhibition at 0.2 µM of 0

# molecule Fc1ccc(-c2ccc3c(-c4ccncc4)cccc3c2)cc1 ; its inhibition at 0.2 µM = 1

Reported inhibition at 0.2 µM of COc1ccc2cc(-c3ccc(F)cc3)ccc2c1Cn1ccnc1 : 13

###

Target: CYP2C19 (Homo sapiens, UniProt P33261)
Assay: Inhibition of hepatic CYP2C19 at 10 uM
Format: ADME
Measured inhibition at 10 µM, listed per entry.
Entry rule: numbers only, all in %.

C[C@]12CC[C@H](O)CC1=CC[C@@H]1[C@@H]2CC[C@]2(C)C(c3cccnc3)=CC[C@@H]12 [ABIRATERONE]: 7
COc1ccc2cc(-c3ccc(F)cc3)ccc2c1-c1cccnc1: 28

Consider the record given below.
Please fill in: inhibition at 10 µM reported for COc1ccc2cc(-c3cccc(Cn4ccnc4)c3)ccc2c1 = 97

###

Molecular target: Steroid 17-alpha-hydroxylase/17,20 lyase (Homo sapiens, UniProt P05093)
Test: Inhibition of human CYP17 expressed in Escherichia coli at 2 uM
Class 1: inhibition at 2 µM at least 7%. Class -1: inhibition at 2 µM below 7%.

Some solved cases for reference:
Oc1ccc2cc(-c3cccc(-c4ccncc4)c3)ccc2c1: 1
COc1ccc2cc(-c3cccc(-c4ccncc4)c3)ccc2c1: 1
Fc1ccc(-c2ccc3cc(Cn4ccnc4)ccc3c2)cc1: 1
Fc1ccc(-c2ccc3c(-c4cccnc4)cccc3c2)cc1: -1
COc1ccc2cc(-c3cccnc3)ccc2c1-c1ccc(F)cc1: -1

Prompt line: Could you tell me if the measured inhibition at 2 µM of Cc1cc(F)ccc1-c1ccc2c(-c3cccnc3)cccc2c1 reaches 7% or more?
Response line: -1

Prompt line: Hi team, for COc1ccc2cc(-c3cccc(-c4cccnc4)c3)ccc2c1 , is the recorded inhibition at 2 µM at or above 7%?
Response line: -1
